Assay: One-photon absorption and emission spectra in multilamellar lipid vesicles, water and ethanol
Type: physicochemical
Conditions: one photon; soybean multi-lamellar lipid vesicles
OBSERVABLE: 1PF Em. Max (nm)

COMPOUND	UNIT ABBREVIATION	OBS VALUE
CCN(CC)c1ccc(-c2ccc(/C=C/c3cc[n+](CCC[N+](CC)(CC)CC)cc3)s2)s1	nm	686
CCCCN(CCCC)c1ccc(/C=C/c2cc[n+](CCC[N+](CC)(CC)CC)cc2)s1	nm	588
CCC[N+](CCC)(CCC)CCC[n+]1ccc(/C=C/c2ccc(-c3ccc(N(CC)CC)s3)s2)cc1	nm	688
CCCCN(CCCC)c1ccc2cc(/C=C/C=C/c3cc[n+](CCC[N+](C)(C)C)c4ccccc34)ccc2c1.[Br-].[Br-] [di-4-ANBDQPQ, Di-4-ANBDQPQ, reference compound]	nm	708
CCCN(CCC)c1ccc(-c2ccc(/C=C/c3cc[n+](CCC[N+](CC)(CC)CC)cc3)s2)s1	nm	692
CCCCN(CCCC)c1ccc2cc(/C=C/C=C/C=C/c3cc[n+](CCC[N+](C)(C)C)c4ccccc34)ccc2c1.[Br-].[Br-] [di-4-ANHTQPQ, reference compound]	nm	655
CCN(CC)c1ccc(-c2ccc(/C=C(\F)c3cc[n+](CCC[N+](CC)(CC)CC)cc3)s2)s1	nm	706
CCCCN(CCCC)c1ccc(-c2ccc(/C=C/c3cc[n+](CCC[N+](CC)(CC)CC)cc3)s2)s1	nm	694
CC[N+](CC)(CC)CCC[n+]1ccc(/C=C/c2ccc(-c3ccc(N4CCCC4)s3)s2)cc1	nm	691
CCCCN(CCCC)c1ccc2cc(/C=C/c3cc[n+](CCC[N+](C)(C)C)c4ccccc34)ccc2c1.[Br-].[Br-] [di-4-ANEQPQ, reference compound]	nm	670
CC[N+](CC)(CC)CCC[n+]1ccc(/C=C/c2ccc(-c3ccc(N(C)C)s3)s2)cc1	nm	676
CCN(CC)c1ccc(-c2ccc(-c3ccc(/C=C/c4cc[n+](CCC[N+](CC)(CC)CC)cc4)s3)s2)s1	nm	714

====

Experiment: One-photon absorption and emission spectra in multilamellar lipid vesicles, water and ethanol
Format: physicochemical
Details: multilamellar lipid vesicles
In this section, each of the molecules is paired with its reported Absorbance MLV.

MOLECULE	Absorbance MLV
CCN(CC)c1ccc(-c2ccc(/C=C/c3cc[n+](CCC[N+](CC)(CC)CC)cc3)s2)s1	547 nm
CCCCN(CCCC)c1ccc(-c2ccc(/C=C/c3cc[n+](CCC[N+](CC)(CC)CC)cc3)s2)s1	552 nm
CCCN(CCC)c1ccc(-c2ccc(/C=C/c3cc[n+](CCC[N+](CC)(CC)CC)cc3)s2)s1	547 nm
CN(C)c1ccc(/C=C/c2ccc(/C=C/c3cc[n+](CCC[N+](C)(C)C)c4ccccc34)o2)cc1	569 nm
CCN(CC)c1ccc2cc(/C=C/C=C/c3cc[n+](CCC[N+](C)(C)C)c4ccccc34)ccc2c1.[Br-].[Br-]	526 nm
CCN(CC)c1ccc(-c2ccc(-c3ccc(/C=C/c4cc[n+](CCC[N+](CC)(CC)CC)cc4)s3)s2)s1	535 nm
CCCCN(CCCC)c1ccc2cc(/C=C/C=C/c3cc[n+](CCC[N+](C)(C)C)c4ccccc34)ccc2c1.[Br-].[Br-] [di-4-ANBDQPQ, Di-4-ANBDQPQ, reference compound]	539 nm
